Values from PubChem BioAssay AID1745844

- System: rodent lifetime carcinogenesis bioassay, tumor incidence TD50
- ASSAY_SUMMARY: carcinogenic potency in animals, long-term in vivo studies, CPDB compilation (AID 1745844)
- PROTOCOL_CONDITIONS: rat; strain Fischer 344; males; in drinking water; site: lung; lesion: adenoma; dosed 118 weeks; study length 128 weeks
PROPERTY: TD50
Report field: quantity (unit follows the number).

Answer with TD50 of CN(CCCC(=O)c1cccnc1)N=O measured for rodent lifetime carcinogenesis bioassay, tumor incidence TD50.
0.343 mg/kg/day

----------
- Test system: rodent lifetime carcinogenesis bioassay, tumor incidence TD50
- ASSAY_SUMMARY: carcinogenic potency in animals, long-term in vivo studies, CPDB compilation (AID 1745844)
- PROTOCOL_CONDITIONS: rat; strain Sprague-Dawley; males; by gavage; site: forestomach; lesion: squamous-cell carcinoma; dosed 52 weeks; study length 156 weeks
PROPERTY: TD50

Return TD50 for the following compound: c1ccc(C2CO2)cc1 (stereo unspecified)
63 mg/kg/day

----------
- System: rodent lifetime carcinogenesis bioassay, tumor incidence TD50
- ASSAY_SUMMARY: carcinogenic potency in animals, long-term in vivo studies, CPDB compilation (AID 1745844)
- PROTOCOL_CONDITIONS: rat; strain Wistar; females; inhaled; site: nasal cavity; lesion: olfactory epithelial carcinoma; dosed 52 weeks; study length 52 weeks
PROPERTY: TD50

# return recorded TD50 for input C=CCl
276 mg/kg/day

----------
- System: rodent lifetime carcinogenesis bioassay, tumor incidence TD50
- ASSAY_SUMMARY: carcinogenic potency in animals, long-term in vivo studies, CPDB compilation (AID 1745844)
- PROTOCOL_CONDITIONS: rat; strain Sprague-Dawley; females; by gavage; site: extrahepatic tissue; lesion: angiosarcoma; dosed 59 weeks; study length 129 weeks
PROPERTY: TD50 (mg/kg/day)
# unit: mg/kg/day | format: bare number

Identify the reported TD50 for the following entry. C=CCl
10.9

----------
- System: rodent lifetime carcinogenesis bioassay, tumor incidence TD50
- ASSAY_SUMMARY: carcinogenic potency in animals, long-term in vivo studies, CPDB compilation (AID 1745844)
- PROTOCOL_CONDITIONS: rat; strain Charles River CD (Sprague-Dawley); males; in feed; site: liver; lesion: biliary cystadenoma; dosed 142 weeks; study length 142 weeks
PROPERTY: TD50 (mg/kg/day)
Please give a number only; it is taken to be in mg/kg/day.

Output TD50 of O=C1NS(=O)(=O)c2ccccc21
60000

----------
- Test system: rodent lifetime carcinogenesis bioassay, tumor incidence TD50
- ASSAY_SUMMARY: carcinogenic potency in animals, long-term in vivo studies, CPDB compilation (AID 1745844)
- PROTOCOL_CONDITIONS: mouse; strain B6C3F1; females; inhaled; site: liver; lesion: hepatocellular adenoma + hepatocellular carcinoma; dosed 104 weeks; study length 104 weeks
PROPERTY: TD50

>>> df
     compound  observed_measurement
0  C=CC(=C)Cl        7.07 mg/kg/day

Please look at the following compound next.
Tell us which TD50 value is on record for CC(O)COC(C)(C)C (configuration not stated)
1780 mg/kg/day

----------
- Tested on: rodent lifetime carcinogenesis bioassay, tumor incidence TD50
- ASSAY_SUMMARY: carcinogenic potency in animals, long-term in vivo studies, CPDB compilation (AID 1745844)
- PROTOCOL_CONDITIONS: mouse; strain B6C3F1; males; inhaled; site: liver; lesion: hemangiosarcoma; dosed 104 weeks; study length 104 weeks
PROPERTY: TD50 (mg/kg/day)
Number only, in mg/kg/day; omit the unit.

Please list TD50 recorded for the molecule C=CC(=C)Cl
123

----------
- Test system: rodent lifetime carcinogenesis bioassay, tumor incidence TD50
- ASSAY_SUMMARY: carcinogenic potency in animals, long-term in vivo studies, CPDB compilation (AID 1745844)
- PROTOCOL_CONDITIONS: rat; strain Wistar; females; in drinking water; site: liver; lesion: hepatocellular adenoma; dosed 104 weeks; study length 104 weeks
PROPERTY: TD50

Please give measured TD50 of the following entry: O=C1OC(O)C(C(Cl)Cl)=C1Cl (stereo unspecified)
16 mg/kg/day

----------
- Test system: rodent lifetime carcinogenesis bioassay, tumor incidence TD50
- ASSAY_SUMMARY: carcinogenic potency in animals, long-term in vivo studies, CPDB compilation (AID 1745844)
- PROTOCOL_CONDITIONS: rat; strain Osborne-Mendel; both sexes; in feed; site: esophagus; lesion: several types; types named in the paper; dosed 104 weeks; study length 104 weeks
PROPERTY: TD50

Determine reported TD50 for CCCc1ccc2c(c1)OCO2 ; test system: rodent lifetime carcinogenesis bioassay, tumor incidence TD50.
143 mg/kg/day

----------
- Test system: rodent lifetime carcinogenesis bioassay, tumor incidence TD50
- ASSAY_SUMMARY: carcinogenic potency in animals, long-term in vivo studies, CPDB compilation (AID 1745844)
- PROTOCOL_CONDITIONS: rat; strain Wistar albino; males; i.p.; site: kidney; lesion: epithelial neoplasm; dosed 26 weeks; study length 52 weeks
PROPERTY: TD50

Query TD50 for CN(N=O)C(=O)NCCC[C@H](N)C(=O)O
1.04 mg/kg/day

----------
- Test system: rodent lifetime carcinogenesis bioassay, tumor incidence TD50
- ASSAY_SUMMARY: carcinogenic potency in animals, long-term in vivo studies, CPDB compilation (AID 1745844)
- PROTOCOL_CONDITIONS: mouse; strain B6C3F1; females; in drinking water; site: liver; lesion: hemangioma; dosed 79 weeks; study length 79 weeks
PROPERTY: TD50 (mg/kg/day)
I only need the number, in mg/kg/day, no unit after it.

Determine its reported TD50: OCCBr
800

----------
- System: rodent lifetime carcinogenesis bioassay, tumor incidence TD50
- ASSAY_SUMMARY: carcinogenic potency in animals, long-term in vivo studies, CPDB compilation (AID 1745844)
- PROTOCOL_CONDITIONS: rat; strain Fischer 344; males; in drinking water; site: brain; lesion: oligodendroglioma; dosed 104 weeks; study length 104 weeks
PROPERTY: TD50 (mg/kg/day)
Give your result in mg/kg/day as a bare value.

Give me measured TD50, please, for this compound: C=CC(N)=O
339

----------
- Test system: rodent lifetime carcinogenesis bioassay, tumor incidence TD50
- ASSAY_SUMMARY: carcinogenic potency in animals, long-term in vivo studies, CPDB compilation (AID 1745844)
- PROTOCOL_CONDITIONS: rat; strain Sprague-Dawley; males; in feed; site: nasal cavity; lesion: squamous-cell carcinoma; dosed 78 weeks; study length 104 weeks
PROPERTY: TD50

Name the recorded TD50 of the compound listed here: CCOc1ccc(NC(C)=O)cc1
7530 mg/kg/day

----------
- Test system: rodent lifetime carcinogenesis bioassay, tumor incidence TD50
- ASSAY_SUMMARY: carcinogenic potency in animals, long-term in vivo studies, CPDB compilation (AID 1745844)
- PROTOCOL_CONDITIONS: rat; strain Fischer 344; males; by gavage; site: testis; lesion: interstitial-cell adenoma, bilateral + interstitial-cell adenoma; dosed 103 weeks; study length 105 weeks
PROPERTY: TD50 (mg/kg/day)
Give the quantity in mg/kg/day, number only.

Return TD50 for the following compound: BrC(Br)Br
75

----------
- Test system: rodent lifetime carcinogenesis bioassay, tumor incidence TD50
- ASSAY_SUMMARY: carcinogenic potency in animals, long-term in vivo studies, CPDB compilation (AID 1745844)
- PROTOCOL_CONDITIONS: mouse; strain ICR/Jcl; both sexes; in feed; site: thymus gland; lesion: lymphatic leukemia; dosed 54 weeks; study length 54 weeks
PROPERTY: TD50

Send back rodent lifetime carcinogenesis bioassay, tumor incidence TD50 TD50 of Cn1cc(C(=O)O)c(=O)c2ccc(/C=C/c3ccc([N+](=O)[O-])o3)nc21 only.
26.5 mg/kg/day

----------
- System: rodent lifetime carcinogenesis bioassay, tumor incidence TD50
- ASSAY_SUMMARY: carcinogenic potency in animals, long-term in vivo studies, CPDB compilation (AID 1745844)
- PROTOCOL_CONDITIONS: rat; strain SD(Crj:CD) Sprague-Dawley; males; in feed; site: stomach, glandular; lesion: adenocarcinoma; dosed 104 weeks; study length 104 weeks
PROPERTY: TD50

Retrieve TD50 measured for Oc1ccccc1O and print it.
151 mg/kg/day

----------
- System: rodent lifetime carcinogenesis bioassay, tumor incidence TD50
- ASSAY_SUMMARY: carcinogenic potency in animals, long-term in vivo studies, CPDB compilation (AID 1745844)
- PROTOCOL_CONDITIONS: rat; strain Fischer 344; males; in feed; site: spleen; lesion: fibrosarcoma; dosed 78 weeks; study length 104 weeks
PROPERTY: TD50

Identify measured TD50 associated with Nc1ccc(S(=O)(=O)c2ccc(N)cc2)cc1
167 mg/kg/day

----------
- System: rodent lifetime carcinogenesis bioassay, tumor incidence TD50
- ASSAY_SUMMARY: carcinogenic potency in animals, long-term in vivo studies, CPDB compilation (AID 1745844)
- PROTOCOL_CONDITIONS: mouse; strain B6C3F1; males; by gavage; site: subcutaneous tissue; lesion: fibrosarcoma + neurofibrosarcoma + sarcoma; dosed 103 weeks; study length 104 weeks
PROPERTY: TD50 (mg/kg/day)
Provide only the numeric value, understood in mg/kg/day.

// fetch TD50 given entry CC1=CC(=O)CC(C)(C)C1
1260
